This listing pairs compounds with measured pIC50.
Tested on: H526 cell line
Assay: Cell viability assay for NCI-H526 cell line (EZ-Cytox)
Format: cell-based
Settings: Homo sapiens, NCI-H526, 120 h; H526 cells, 3-fold dilutions 3000 nM to 0.46 nM, 5 days
pIC50: −log10 of the molar value.

Measured pIC50 of COc1cc(C(=O)NC2CC3(CCN(CC4CCN(c5ccc(NC6CCC(=O)NC6=O)cc5F)CC4)CC3)C2)ccc1Nc1ncc2c(n1)N(C(C)C)CC(F)(F)C(=O)N2C (centres unmarked) [Compound 24] : > 7.52

Measured pIC50 of COc1cc(C(=O)NC2CC3(CCN(CC4CCN(c5ccc(NC6CCC(=O)NC6=O)cc5)CC4)CC3)C2)ccc1Nc1ncc2c(n1)N(C(C)C)CC(F)(F)C(=O)N2C (centres unmarked) [Compound 28] : > 7.52

Measured pIC50 of COc1cc(C(=O)NC2CC3(CCN(CC4CCN(c5cccc6c5n(C)c(=O)n6C5CCC(=O)NC5=O)CC4)CC3)C2)ccc1Nc1ncc2c(n1)N(C(C)C)CC(F)(F)C(=O)N2C (centres unmarked) [Compound 38] : > 7.52

Measured pIC50 of COc1cc(C(=O)NC2CC3(CCN(CC4CCN(c5ccc(OC6CCC(=O)NC6=O)cc5F)CC4)CC3)C2)ccc1Nc1ncc2c(n1)N(C(C)C)CC(F)(F)C(=O)N2C (centres unmarked) [Compound 35] : > 7.30

Further cases:
Measured pIC50 of COc1cc(C(=O)NC2CC3(CCN(CC4CCN(c5c(F)cc(NC6CCC(=O)NC6=O)cc5F)CC4)CC3)C2)ccc1Nc1ncc2c(n1)N(C(C)C)CC(F)(F)C(=O)N2C (centres unmarked) [Compound 25] : > 7.52

====

This listing pairs compounds with measured IC50.
System: H526 cell line
Experiment: Cell viability assay for NCI-H526 cell line (EZ-Cytox)
Type: cell-based
Conditions: Homo sapiens, NCI-H526, 120 h; H526 cells, 3-fold dilutions 3000 nM to 0.46 nM, 5 days

Please review the entries below; each comes with its answer.
Measured IC50 of COc1cc(C(=O)NC2CCN(C(=O)CCN3CCN(c4cccc(N(C)C5CCC(=O)NC5=O)c4)CC3)CC2)ccc1Nc1ncc2c(n1)N(C1CCCC1)CC(F)(F)C(=O)N2C (centres unmarked) : < 50 nM

Measured IC50 of COc1cc(C(=O)NN2CCC(N3CC4(CCN(c5ccc(N(C)C6CCC(=O)NC6=O)cc5F)CC4)C3)CC2)ccc1Nc1ncc2c(n1)N(C(C)C)CC(F)(F)C(=O)N2C (centres unmarked) : < 50 nM

Measured IC50 of COc1cc(C(=O)NN2CCC(N3CC4(CCN(c5ccc(NC6CCC(=O)NC6=O)cc5F)CC4)C3)CC2)ccc1Nc1ncc2c(n1)N(C(C)C)CC(F)(F)C(=O)N2C (centres unmarked) : < 50 nM

Measured IC50 of COc1cc(C(=O)NN2CCC(CCN3CCN(c4ccc(N(C)C5CCC(=O)NC5=O)cc4F)CC3)CC2)ccc1Nc1ncc2c(n1)N(C1CCCC1)CC(F)(F)C(=O)N2C (centres unmarked) : < 30 nM

Consider the additional compound presented here.
Measured IC50 of COc1cc(C(=O)NC2CCN(C(=O)CCN3CCN(c4cccc(NC5CCC(=O)NC5=O)c4)CC3)CC2)ccc1Nc1ncc2c(n1)N(C1CCCC1)CC(F)(F)C(=O)N2C (centres unmarked) : < 30 nM
